Target: Platelet-derived growth factor receptor beta (Homo sapiens, UniProt P09619)
Sequence (P09619 whole entry, the tested form may be a part): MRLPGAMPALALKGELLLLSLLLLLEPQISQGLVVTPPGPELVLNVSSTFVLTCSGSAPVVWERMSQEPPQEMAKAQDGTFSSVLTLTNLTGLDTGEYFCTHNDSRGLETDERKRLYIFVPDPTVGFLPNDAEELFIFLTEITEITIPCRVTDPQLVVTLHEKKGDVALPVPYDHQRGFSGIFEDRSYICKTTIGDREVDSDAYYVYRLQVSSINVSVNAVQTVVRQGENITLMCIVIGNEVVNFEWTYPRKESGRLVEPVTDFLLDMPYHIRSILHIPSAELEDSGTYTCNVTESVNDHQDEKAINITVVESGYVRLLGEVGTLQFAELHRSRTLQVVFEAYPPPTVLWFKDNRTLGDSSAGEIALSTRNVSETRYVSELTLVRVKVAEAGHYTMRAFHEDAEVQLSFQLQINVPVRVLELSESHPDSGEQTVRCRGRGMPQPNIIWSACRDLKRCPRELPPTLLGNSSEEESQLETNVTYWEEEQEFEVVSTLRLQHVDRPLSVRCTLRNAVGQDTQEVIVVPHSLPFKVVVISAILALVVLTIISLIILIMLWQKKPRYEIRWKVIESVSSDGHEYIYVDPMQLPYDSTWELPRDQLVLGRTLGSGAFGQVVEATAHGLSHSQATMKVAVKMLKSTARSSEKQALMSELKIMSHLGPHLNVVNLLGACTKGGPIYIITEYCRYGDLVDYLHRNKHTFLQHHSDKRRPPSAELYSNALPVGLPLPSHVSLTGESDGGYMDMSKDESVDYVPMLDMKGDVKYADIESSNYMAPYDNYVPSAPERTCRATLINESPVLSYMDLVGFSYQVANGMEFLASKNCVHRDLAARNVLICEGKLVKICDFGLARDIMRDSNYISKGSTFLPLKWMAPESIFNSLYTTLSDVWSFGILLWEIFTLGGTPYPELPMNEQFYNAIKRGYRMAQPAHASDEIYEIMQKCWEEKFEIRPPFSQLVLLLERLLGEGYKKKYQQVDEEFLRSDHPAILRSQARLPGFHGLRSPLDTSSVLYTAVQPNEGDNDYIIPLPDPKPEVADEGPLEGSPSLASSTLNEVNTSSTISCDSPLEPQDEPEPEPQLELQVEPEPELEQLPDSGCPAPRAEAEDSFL
Assay: Inhibition of recombinant cytoplasmic domain of PDGFRbeta expressed in baculovirus infected Sf21 insect cells assessed as tyrosine phosphorylation treated 30 hrs after infection measured after 48 hrs of post infection by Western blotting
READOUT: IC50
Give the number first and the unit second.

Dear colleague, please send me the reported IC50 for COc1ccc2[nH]c3c4[nH]c5ccc(OC)cc5c4c4c(c3c2c1)C(=O)NC4=O [GW296115X] when you can.
2000 nM

Numbers sourced from ChEMBL document CHEMBL1955835.
